Reference for the values: patent US20240158446A1

Below, each of the compounds is paired with its reported pKd value.
# assayed_target: GDP-bound KRAS wild-type protein (Homo sapiens, UniProt P01116)
# Sequence (P01116 whole entry): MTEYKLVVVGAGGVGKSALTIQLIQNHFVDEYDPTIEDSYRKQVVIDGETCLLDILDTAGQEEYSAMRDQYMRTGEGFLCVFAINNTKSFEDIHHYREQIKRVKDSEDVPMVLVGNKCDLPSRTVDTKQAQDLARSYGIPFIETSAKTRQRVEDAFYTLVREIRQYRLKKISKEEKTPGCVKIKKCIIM
# test_description: Binding to KRAS by surface plasmon resonance (SPR), Single Cycle Kinetics
# run_parameters: SPR Single Cycle Kinetics, GDP-bound KRAS wild-type protein, 1:1 binding model; read-out: KRAS KD
*1 amine or outer side, *2 acyl side, *3 side chain or, on linkers, in order; H or OH if unused. Where a SMILES comes first, the peptide text is derived from it. Bridges are numbered along the chain shown (N, C = ends). [ ]: non-standard residue; d: D form. The star is where a group is joined. hPhe(3-Cl-4-CF3) = N[C@@H](CCc1ccc(C(F)(F)F)c(Cl)c1)C(=O)O; NPrPhe(4-CF3) = CCCN[C@@H](Cc1ccc(C(F)(F)F)cc1)C(=O)O; X19 = CCCN([C@@H](CC1CCC(F)(F)CC1)C(=O)[*:2])[*:1]; NMeGly(cPent) = CN[C@H](C(=O)O)C1CCCC1; NMeD = CN[C@@H](CC(=O)O)C(=O)O; NMeL = CN[C@@H](CC(C)C)C(=O)O; Morpholide = C1CN(*)CCO1; Ac5c = NC1(C(=O)O)CCCC1; Sar = CNCC(=O)O
The read-out pKd is expressed as -log10 of concentration in moles per litre.

Study these solved cases before continuing.
{"columns": ["compound", "pKd"],
 "data": [
  ["CCCN1C(=O)CN(C)C(=O)CN(C)C(=O)[C@H]([C@@H](C)CC)NC(=O)[C@H](CC(C)C)N(C)C(=O)C[C@@H](C(=O)N2CCOCC2)N(C)C(=O)[C@H](C2CCCC2)N(C)C(=O)C2(CCCC2)NC(=O)[C@@H]2CCCN2C(=O)[C@H](CCc2ccc(C(F)(F)F)c(Cl)c2)NC(=O)CN(C)C(=O)[C@@H]1CC1CCC(F)(F)CC1 [PP0526] ([NMeL]I[Sar][Sar][X19][Sar][hPhe(3-Cl-4-CF3)]P[Ac5c][NMeGly(cPent)][NMeD]-Morpholide; lactam N-11)", 10.13],
  ["CCO[C@@H]1C[C@H]2C(=O)NC3(CC(C)(C)C3)C(=O)N(C)[C@@H](C3CCCC3)C(=O)N(C)[C@H](C(=O)N3CCCCC3)CC(=O)N(C)[C@@H](COC)C(=O)N[C@@H]([C@@H](C)CC)C(=O)N(C)CC(=O)N(C)[C@H]3C/C=C\\CCN(C3=O)[C@@H](Cc3ccc(C)cc3)C(=O)N(C)CC(=O)N[C@@H](CCc3cc(F)c(C(F)(F)F)c(F)c3)C(=O)N2C1", 9.74],
  ["CCO[C@@H]1C[C@H]2C(=O)NC3(CCC3)C(=O)N(C)[C@@H](C3CCCC3)C(=O)N(CC)[C@H](C(=O)N3CCOCC3)CC(=O)N(C)[C@@H](CC(C)C)C(=O)N[C@@H]([C@@H](C)CC)C(=O)N(C)CC(=O)N(C)[C@H]3CCCCN(C3=O)[C@@H](Cc3ccc(C(F)(F)F)cc3)C(=O)N(C)CC(=O)N[C@@H](CCc3cc(F)c(C(F)(F)F)c(F)c3)C(=O)N2C1", 9.68],
  ["CCC[C@H]1C(=O)N[C@@H](CC(C)C)C(=O)N(C2CC2)CC(=O)N(C)[C@H]2C/C=C\\CCN(C2=O)[C@@H](Cc2ccc(C)cc2)C(=O)N(C)CC(=O)N[C@@H](CCc2ccc(C(F)(F)F)c(Cl)c2)C(=O)N2C[C@H](OCC)C[C@H]2C(=O)NC2(CCC2)C(=O)N(C)[C@@H](C2CCCC2)C(=O)N(C)[C@H](C(=O)N(C)C)CC(=O)N1C", 8.38],
  ["CCCN1C(=O)CN(C)C(=O)CN(C)C(=O)[C@H]([C@@H](C)CC)NC(=O)[C@H](CC(C)C)N(C)C(=O)C[C@@H](C(=O)N(C)C)NC(=O)[C@H](C2CCCC2)N(C)C(=O)C2(CCCC2)NC(=O)[C@@H]2CCCN2C(=O)[C@H](CCc2ccc(C(F)(F)F)c(Cl)c2)NC(=O)CN(C)C(=O)[C@@H]1Cc1ccc(C(F)(F)F)cc1 [PP0355] ([NMeL]I[Sar][Sar][NPrPhe(4-CF3)][Sar][hPhe(3-Cl-4-CF3)]P[Ac5c][NMeGly(cPent)]D-NMe2; lactam N-11)", 9.48]
]}

// next entry
[Q] Any idea what its pKd is? The compound is CCO[C@@H]1C[C@H]2C(=O)NC3(CC(C)(C)C3)C(=O)N(C)[C@@H](C3CCCC3)C(=O)N(C)[C@H](C(=O)N3CCCCC3)CC(=O)N(C)[C@H]3CCC/C=C/c4ccc(cc4)C[C@@H](C(=O)N(C)CC(=O)N[C@@H](CCc4cc(F)c(C(F)(F)F)c(F)c4)C(=O)N2C1)N1CC/C=C\C[C@@H](C1=O)N(C)C(=O)CN(C)C(=O)[C@H]([C@@H](C)CC)NC3=O
[A] 10.00
